Target: Neuropeptides B/W receptor type 1 (Homo sapiens) (UniProt P48145)
Sequence (P48145 whole entry, looked up): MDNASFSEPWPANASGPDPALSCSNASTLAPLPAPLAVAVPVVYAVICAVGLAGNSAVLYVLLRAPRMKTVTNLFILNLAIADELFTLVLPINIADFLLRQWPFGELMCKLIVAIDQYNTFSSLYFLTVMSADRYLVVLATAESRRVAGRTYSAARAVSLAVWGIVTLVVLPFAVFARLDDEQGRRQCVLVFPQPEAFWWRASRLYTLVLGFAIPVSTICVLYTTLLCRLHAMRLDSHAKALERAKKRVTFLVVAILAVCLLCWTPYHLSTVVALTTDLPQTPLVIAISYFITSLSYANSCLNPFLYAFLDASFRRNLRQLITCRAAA
Test: GPR7 receptor antagonists, primary screen, cell-based, fluorescence, single concentration (AID 1861);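 further: cells stimulated with the agonist NPW; 0% = agonist with vehicle and 100% = vehicle without agonist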
Conditions: GPR7-expressing cells, fluorescence antagonist assay; at 4.4 µM; active compounds read high
Screen size: about 290,000 compounds; about 3,100 (1.1%) were called active. The full list was thinned out, with actives kept by preference.
PARAMETER MEASURED: inhibition (%)
State the answer as a number, implicitly in %.

Take a look at these entries with their results.
COMPOUND	inhibition / %
O=C(CSc1nc2cccnc2n1Cc1ccccc1)N1CCc2ccccc21	-12
CC(C)N1CCC(NC(=O)Nc2ccccc2)CC1	-11.8
Cc1cccc(N2CCN(C(=O)COCc3cc(-c4ccc5c(c4)OCO5)on3)CC2)c1C	14
CCOC(=O)c1cnc2ccc(F)cc2c1Nc1ccc2c(c1)OCCO2	-2.1
O=C(NCCN1CCOCC1)c1ccc(/C=C2\Sc3ccccc3N(Cc3ccc(F)cc3)C2=O)cc1	4.73

Measured inhibition of Cc1ccc(S(=O)(=O)CC(=O)Nc2c(C)n(C)n(-c3ccccc3)c2=O)cc1 : 1.37

Measured inhibition of COc1ccccc1NC(=O)CSc1nc2sc3c(c2c(=O)n1-c1ccccc1)CCN(C)C3 : 4.04

Measured inhibition of COCCCNC(=S)N1CCN(c2nc(-c3cccc(OC)c3)cs2)CC1 : 42.1

Measured inhibition of CCOC(CNC(=O)C1CCN(S(=O)(=O)c2ccc3nc4c(c(C(=O)O)c3c2)CC(C)CC4)CC1)OCC (stereo unspecified) : -21.9

Measured inhibition of Cc1ccc(-c2nc(SCC(=O)Nc3ccccc3OC(F)F)c3c(C)c(C(=O)O)sc3n2)cc1 : 29.8

Measured inhibition of COc1cccc(NC(=O)CN2CCN(c3nc(-c4cccc(OC)c4)cs3)CC2)c1 : -9.85

Measured inhibition of c1ccc2c(c1)CCc1snnc1-2 : -15.5

Measured inhibition of COC(=O)c1ccc(NC(=O)c2ccccc2NS(=O)(=O)c2ccccc2)cc1 : 17.3

Measured inhibition of O=C(NCCCN1CCOCC1)c1ccc2c(c1)N(Cc1cccc(F)c1)C(=O)c1ccccc1S2 : 24.4

Measured inhibition of CCN1CCN(c2ccc([N+](=O)[O-])cc2C(=O)c2ccc(Cl)cc2)CC1 : 32.3

Measured inhibition of COC(=O)c1ccc(C(=O)NC2CC(C)(C)Cc3c2cnn3-c2ccc(F)cc2)nc1 (stereo unspecified) : 18.2

Measured inhibition of COc1cc(OC)c(S(=O)(=O)Nc2ccccc2C(=O)O)cc1S(=O)(=O)Nc1ccccc1C(=O)O : -13.8

Measured inhibition of O=C(NC1CCCCC1)C1c2ccccc2C(=O)N1Cc1ccco1 (stereo unspecified) : -11.8

Measured inhibition of O=C(COc1ccc(S(=O)(=O)N2CCOCC2)cc1Cl)N1CCOCC1 : -13.2

Measured inhibition of Cc1nc2ccc(S(=O)(=O)N(C)CC(=O)NC(C)c3ccccc3)cc2s1 (stereo unspecified) : 2.55

Measured inhibition of O=C(OCN1C(=O)c2ccccc2C1=O)/C(=C\c1ccco1)NC(=O)c1ccccc1 : 19

Measured inhibition of Cn1cc([N+](=O)[O-])c(C(=O)Nc2cnn(Cc3ccc(F)cc3)c2)n1 : -7.64

Measured inhibition of CCC(=O)c1ccc(N2CCN(C(=O)c3cc([N+](=O)[O-])ccc3F)CC2)c(F)c1 : 8.34

Measured inhibition of CC(=O)OC(C(=O)NC1CCCCC1)c1ccccc1 (stereo unspecified) : -8.98

Measured inhibition of Cc1ccnc(N2C(=O)c3ccccc3C2Nc2ccc3c(c2)OCCO3)c1 (stereo unspecified) : -8.69

Measured inhibition of CC(=O)N1c2ccc(S(=O)(=O)N3CCC(C(=O)NCc4ccc(F)cc4)CC3)cc2CC1C (stereo unspecified) : -4.2
